Data provenance is the supplement of paper PMC12855868.

B1: library; numbered along this chain (parent)
chain: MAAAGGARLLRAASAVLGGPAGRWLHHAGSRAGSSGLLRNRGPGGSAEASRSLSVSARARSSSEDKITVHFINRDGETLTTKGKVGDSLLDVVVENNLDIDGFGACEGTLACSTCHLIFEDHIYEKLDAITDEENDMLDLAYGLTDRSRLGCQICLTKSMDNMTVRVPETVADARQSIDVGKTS

Variants of: B1
ASSAY_NOTES: scaled log2 fold change in cell abundance, elesclomol vs control (0 = silent mean, 1 = nonsense mean) (scaled log2 ratio); higher = higher viability under elesclomol (loss of FDX1 cuproptosis function);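 note: variant abundance is its share of total variant reads in each endpoint sample, from next-generation sequencing of the integrated ORF PCR-amplified out of genomic DNA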
STUDY_CONDITIONS: with HEK293T FDX1 KO; elesclomol 40 nM; glucose 10 mM; 11 days
Reported scaled log2 fold change values follow for various variants

{"columns": ["MUTATION_ID", "scaled log2 fold change"],
 "data": [
  ["Y124E", 0.747],
  ["A7S", 0.154],
  ["D121Q", 0.0204],
  ["L127P", 1.12],
  ["M160P", 1.11],
  ["A105N", 0.204],
  ["T68C", -0.148],
  ["S46N", 0.643],
  ["E77I", -0.714],
  ["V85A", -0.325],
  ["F119H", -0.0181]
]}
